Origin of the recorded values: ChEMBL document CHEMBL4152302

- assay-info: Cytotoxicity against mouse RAW264.7 cells assessed as inhibition of cell viability at 50 ug/ml after 72 hrs by MTT assay relative to control
- Type: cell-based
- measurement-parameters: read-out: INH

item-smiles	unit-of-measurement	cytotoxicity at 72 h, 50 ug/ml
O=C(Nc1ccc([N+](=O)[O-])cc1)c1nc2cc(C(F)(F)F)ccc2s1	%	32.6
O=C(Nc1ccccc1C(F)(F)F)c1nc2cc(C(F)(F)F)ccc2s1	%	27.8
O=C(Nc1ccccc1Cl)c1nc2ccccc2s1	%	24
O=C(Nc1ccc(N2CCOCC2)cc1)c1nc2cc(Cl)ccc2s1	%	42.3
Cc1ccc(NC(=O)c2nc3cc(Cl)ccc3s2)cc1	%	22.6
O=C(Nc1cccc(Cl)c1)c1nc2ccccc2s1	%	26.8
O=C(Nc1ccc(Cl)cc1)c1nc2cc(C(F)(F)F)ccc2s1	%	36.7
